# method: Cytotoxicity against chinese hamster CHOK1 cells
# Type: cell-based, Cricetulus griseus
# measurement_setup: CHO-K1 cells, read-out: ED50 (the source's name)
observation_type: CC50 (µg/mL)
Could you give me the number in µg/mL? Just the number is fine.

Problem: Value lookup for CC50; key = CC1=C2CC3=C(C)C(=O)O[C@H]3C[C@@H](C)[C@@H]2CC1 [AMERICANOLIDE D]
Result: 100
